testContext: in acetonitrile, 298.15 K
measuredQuantity: solubility (mole fraction)
# output: bare number, no unit

INSERT INTO assay_data (recordsmiles, datavalue) VALUES
  ('O=C1OC(=O)c2cc(Cl)ccc21', 0.167);

Turning now to a further record.
Query :: Form field: reported solubility (mole fraction) of O=C1OC(=O)c2c(Cl)cccc21
Result :: 0.106

---

Listed here are compounds together with their documented solubility (mole fraction).
testContext: in methyl acetate, 308.15 K
# output: bare number, no unit

Query :: Form field: reported solubility (mole fraction) of O=C1OC(=O)c2c(Cl)cccc21
Result :: 0.157

Query :: Form field: reported solubility (mole fraction) of O=C1OC(=O)c2cc(Cl)ccc21
Result :: 0.269

---

Listed here are compounds together with their documented solubility (mole fraction).
testContext: in acetonitrile, 283.15 K
# output: bare number, no unit

INSERT INTO assay_data (recordsmiles, datavalue) VALUES
  ('O=C1OC(=O)c2cc(Cl)ccc21', 0.102);

Turning now to a further record.
Query :: Form field: reported solubility (mole fraction) of O=C1OC(=O)c2c(Cl)cccc21
Result :: 0.0676

---

testContext: in cyclohexane, 303.15 K
Listed here are molecules together with their documented solubility (mole fraction).

INSERT INTO results (recordsmiles, datavalue) VALUES
  ('O=C1OC(=O)c2cc(Cl)ccc21', 0.00139);

Query :: Form field: reported solubility (mole fraction) of O=C1OC(=O)c2c(Cl)cccc21
Result :: 0.000909

---

Listed here are compounds together with their documented solubility (mole fraction).
testContext: in tert-amyl alcohol, 298.15 K
# output: bare number, no unit

INSERT INTO results (recordsmiles, measuredquantity, datavalue) VALUES
  ('O=C1OC(=O)c2cc(Cl)ccc21', 'solubility (mole fraction)', 0.0166);

Turning now to a further record.
Query :: Form field: reported solubility (mole fraction) of O=C1OC(=O)c2c(Cl)cccc21
Result :: 0.00875

---

Listed here are molecules together with their documented solubility (mole fraction).
testContext: in tert-amyl alcohol, 308.15 K
# output: bare number, no unit

INSERT INTO assay_data (recordsmiles, datavalue) VALUES
  ('O=C1OC(=O)c2c(Cl)cccc21', 0.0125);

Query :: Form field: reported solubility (mole fraction) of O=C1OC(=O)c2cc(Cl)ccc21
Result :: 0.0274

---

Listed here are molecules together with their documented solubility (mole fraction).
testContext: in acetonitrile, 313.15 K
# output: bare number, no unit

INSERT INTO assay_data (recordsmiles, datavalue) VALUES
  ('O=C1OC(=O)c2c(Cl)cccc21', 0.165);

Turning now to a further record.
Query :: Form field: reported solubility (mole fraction) of O=C1OC(=O)c2cc(Cl)ccc21
Result :: 0.249

---

testContext: in methyl acetate, 283.15 K
measuredQuantity: solubility (mole fraction)
# output: bare number, no unit

INSERT INTO measurements (recordsmiles, datavalue) VALUES
  ('O=C1OC(=O)c2c(Cl)cccc21', 0.0882);

Turning now to a further record.
Query :: Form field: reported solubility (mole fraction) of O=C1OC(=O)c2cc(Cl)ccc21
Result :: 0.134

---

testContext: in methyl acetate, 293.15 K
Listed here are molecules together with their documented solubility (mole fraction).

INSERT INTO measurements (recordsmiles, measuredquantity, datavalue) VALUES
  ('O=C1OC(=O)c2c(Cl)cccc21', 'solubility (mole fraction)', 0.112);

Query :: Form field: reported solubility (mole fraction) of O=C1OC(=O)c2cc(Cl)ccc21
Result :: 0.19
